Where these numbers come from: PubChem BioAssay (NCI)

tested on: 786-0 renal; assay: NCI tumour cell line growth inhibition, 48 h
quantity-name: TGI

// worked examples, TGI included
[[record]]
molecule = "O=C(O)C1(Cc2ccc3c(c2)CCC3)Cc2ccccc2C1=O (stereo not given)"
quantity_name = "TGI"
reading = "> 100 µM"

[[record]]
molecule = "O=S(=O)(NC1OCCCC1I)c1ccccc1 (stereo not given)"
quantity_name = "TGI"
reading = "> 100 µM"

[[record]]
molecule = "C[C@]12C3CC[C@@]4(CO)C[C@]3(CCC1[C@](C)(C(=O)O)CC[C@@H]2O)CC4=O (stereo not given in full)"
quantity_name = "TGI"
reading = "> 100 µM"


Task: Please look up its TGI: "CC1(C)CCCOc2cccc(c2)OCCCC(C)(C)C1=O"
Output: > 100 µM

Task: Please look up its TGI: "CC(=O)Oc1cc(C)c(OC(C)=O)c2c1[C@H]1CC[C@]3(C)[C@@H](OC(C)=O)CC[C@H]3[C@@H]1CC2"
Output: 43.1 µM

----------
Listed next: entries and their corresponding GI50.
test system: OVCAR-8 ovarian; assay: NCI tumour cell line growth inhibition, 48 h

// worked examples, GI50 included
[[record]]
compound = "CNC(=O)OC1C(O[C@H]2C[C@H]3[C@@H]4CC=C5C[C@@H](O)CC[C@]5(C)[C@H]4CC[C@]3(C)[C@H]2[C@H](C)C(=O)CCC(C)C)OCC(O)C1OC1OCC(O)C(O)C1OC(=O)c1ccc(OC)cc1 (stereo not given in full)"
quantity_name = "GI50"
reading = "2.82 µM"

[[record]]
compound = "COc1cc(-c2cc(/C=C3\\C(=O)Nc4ccccc43)[nH]n2)cc(OC)c1OC"
quantity_name = "GI50"
reading = "2.5 µM"

[[record]]
compound = "COC(=O)C1(C2CC/C(C)=C/CC/C(C)=C/CC[C@@]3(C)O[C@@H]3C2)CC1 (stereo not given in full)"
quantity_name = "GI50"
reading = "> 44.3 µM"


Task: Please look up its GI50: COc1cc(C2=NN(c3ccc(S(N)(=O)=O)cc3)C(c3ccc(Cl)cc3)C2)cc(OC)c1OC (stereo not given)
Output: 4.85 µM

Task: Please look up its GI50: "COc1ccc(C(=O)COc2cccc(/C=C3\CSc4ccc(Cl)cc4C3=O)c2)cc1"
Output: 9.35 µM

----------
tested on: COLO 205 colon; experiment: NCI tumour cell line growth inhibition, 48 h; in the data active means GI50 below about 0.43 µM; inactive means the rest
Select the correct class. Options are 1 (yes) = active, 0 (no) = inactive and nothing else.

Worked cases, answers included:
[[record]]
compound = "COc1ccc2c(c1)cn1c3ccc(O)cc3[nH]c(=O)c21"
class_assignment = "1 (yes)"

[[record]]
compound = "N[C@@H]1CCCC[C@@H]1N.O=C([O-])CN(CP(=O)([O-])[O-])CP(=O)([O-])[O-].[Pt+2]"
class_assignment = "0 (no)"

[[record]]
compound = "C#Cc1cccc(Oc2ccc(NC(=O)CCl)cc2)c1"
class_assignment = "0 (no)"

[[record]]
compound = "CC(=O)c1cc2c(c3ccsc13)-c1ccccc1CC2"
class_assignment = "0 (no)"

[[record]]
compound = "O=C(Nc1ccccc1O)c1ccc(CNC(=O)c2sccc2Nc2ccnc(C(F)(F)F)c2)cc1"
class_assignment = "0 (no)"


Task: For "O=C(Nc1ccc(Cl)cc1)c1cc(S(=O)(=O)Nc2nnc(-c3ccccc3)c(-c3ccccc3)n2)c(SCc2ccccc2)cc1Cl" , which call appears in the assay record?
Output: 0 (no)

Task: For "O=C(NNS(=O)(=O)c1ccc(F)cc1)c1cccnc1Nc1ccc(Cl)cc1Cl" , which call appears in the assay record?
Output: 0 (no)

Task: For CNC(=O)OC1C(O[C@H]2C[C@H]3[C@@H]4CC=C5C[C@@H](O)CC[C@]5(C)[C@H]4CC[C@]3(C)[C@H]2[C@H](C)C(=O)CCC(C)C)OCC(O)C1OC1OCC(O)C(O)C1OC(=O)c1ccc(OC)cc1 (some centres not stated) , which call appears in the assay record?
Output: 1 (yes)

Task: For "Cc1ccc2c(c1)O/C(=C\c1ccc([N+](=O)[O-])o1)C2=O" , which call appears in the assay record?
Output: 0 (no)

Task: For "c1cc[c]([Sn]([S]c2cccc3cccnc23)([S]c2cccc3cccnc23)[c]2ccccc2)cc1" , which call appears in the assay record?
Output: 1 (yes)

Task: For Cc1ccc(C2C3=C(N=c4s/c(=C/c5ccc(Br)cc5)c(=O)n42)c2ccc4ccccc4c2OCC3)cc1 (configuration not stated) , which call appears in the assay record?
Output: 0 (no)

Task: For C1=C(c2ccccc2)C(c2ccc(OCCN3CCCCC3)cc2)Oc2ccccc21 (configuration not stated) , which call appears in the assay record?
Output: 0 (no)

Task: For "CS(=O)(=O)CCn1c(=O)c(Oc2ccc(F)cc2F)cc2cnc(NC3CCOCC3)nc21" , which call appears in the assay record?
Output: 0 (no)

----------
tested on: OVCAR-4 ovarian; experiment: NCI tumour cell line growth inhibition, 48 h
Listed next: entries and their corresponding TGI.
State just the number; it will be interpreted in µM.

[[record]]
compound = "COc1cc(-c2cc(/C=C3\\C(=O)Nc4ccccc43)[nH]n2)cc(OC)c1OC"
unit_abbrev = "µM"
reading = 8.98


Task: Enter reported TGI observed with OVCAR-4 ovarian for COC1C(O)C(C)OC(OC2CC3CCC4C(CCC5(C)C(C6=CC(=O)OC6)CCC45O)C3(O)C(OC(C)=O)C2)C1O (centres undefined)
Output: 17.1

----------
tested on: SNB-75 CNS; test: NCI tumour cell line growth inhibition, 48 h
I would appreciate it if you labelled entries condition met when TGI is 30 µM or higher, otherwise condition not met.

Worked cases, answers included:
[[record]]
molecule = "C[C@]12C3CC[C@@]4(CO)C[C@]3(CCC1[C@](C)(C(=O)O)CC[C@@H]2O)CC4=O (stereo not given in full)"
class_assignment = "condition met"

[[record]]
molecule = "CO[C@@]12C[C@H]3[C@@H]([C@@H](O)[C@@H](OC(=O)/C=C/c4ccccc4)[C@@]4(O)C(C)(C)CCC[C@]34C)[C@@H](C)C1=CC(=O)O2"
class_assignment = "condition not met"

[[record]]
molecule = "O=[N+]([O-])C(=C(Nc1ccccc1)Nc1ccccc1)/C(Cl)=C(\\Cl)Br"
class_assignment = "condition not met"

[[record]]
molecule = "c1cc(-c2cn[nH]c2)cc(-c2cn[nH]c2)c1"
class_assignment = "condition met"

[[record]]
molecule = "Cc1cc(=O)oc2c3c(ccc12)OC(c1ccc(Br)cc1)CC3=O (stereo not given)"
class_assignment = "condition not met"


Task: Quick check, TGI >= 30 µM? "NC(=S)N/N=C\c1nccc2c(N)cccc12"
Output: condition met

Task: Quick check, TGI >= 30 µM? Brc1ccc2c(c1)C1C(CO2)C(c2ccccc2)=NN1c1ccccc1 (stereo not given)
Output: condition met

Task: Quick check, TGI >= 30 µM? "Cc1cc(C)n(C(=O)c2nn(-c3ccc(Cl)cc3)cc2O)n1"
Output: condition met

----------
Listed next: entries and their corresponding TGI.
system: SK-OV-3 ovarian; test: NCI tumour cell line growth inhibition, 48 h

// worked examples, TGI included
[[record]]
molecule = "O=S(=O)(O)/C(=C\\c1ccccc1)c1ccccc1 (tested in a mixture with another compound)"
reading = "> 100 µM"

[[record]]
molecule = "CC(/C=N\\NC(=S)N(C)C)=N/NC(=S)N(C)C"
reading = "> 51.9 µM"

[[record]]
molecule = "COC(=O)OCc1ccc2c(c1)C(=O)c1c-2n(CCCBr)c(=O)c2cc([N+](=O)[O-])ccc12"
reading = "> 100 µM"

[[record]]
molecule = "CC(O)(CNS(=O)(=O)c1ccccc1)c1ccccc1 (stereo not given)"
reading = "> 100 µM"


Now consider the entry below.
Task: Enter reported TGI observed with SK-OV-3 ovarian for "O=C(CNc1ncco1)Nc1ccc(S(=O)(=O)c2ccc(NC(=O)CNc3ncco3)cc2)cc1"
Output: 24.1 µM

----------
system: MDA-MB-231 breast; experiment: NCI tumour cell line growth inhibition, 48 h
quantity-name: GI50

// worked examples, GI50 included
[[record]]
compound = "COc1cc(/C=C2\\CN(S(=O)(=O)c3ccccc3)C/C(=C\\c3cc(CN4CCCCC4)c(O)c(OC)c3)C2=O)cc(CN2CCCCC2)c1O"
reading = "1770 nM"

[[record]]
compound = "CCCCCCC#CC#Cc1cccc(=O)o1"
reading = "1640 nM"

[[record]]
compound = "O=C(O)c1cc(Cc2ccc(O)c(C(=O)O)c2)ccc1O (tested in a mixture with another compound)"
reading = "3250 nM"

[[record]]
compound = "C/C1=C\\C/C=C(\\C)[C@H]2CC(CC/C(C)=C/CC1)[C@](C)(C=O)O2"
reading = "> 100000 nM"

[[record]]
compound = "C[C@]12C3CC[C@@]4(CO)C[C@]3(CCC1[C@](C)(C(=O)O)CC[C@@H]2O)CC4=O (some centres undefined)"
reading = "> 100000 nM"

[[record]]
compound = "COc1cc(-c2cc(/C=C3\\C(=O)Nc4ccccc43)[nH]n2)cc(OC)c1OC"
reading = "4070 nM"

[[record]]
compound = "CN1CCN(c2ccc(NC3=C(Cl)C(=O)c4ncccc4C3=O)cc2C#N)CC1"
reading = "1570 nM"

[[record]]
compound = "C1=C(c2ccccc2)C(c2ccc(OCCN3CCCCC3)cc2)Oc2ccccc21 (centres undefined)"
reading = "1860 nM"


Task: Please look up its GI50: "COc1cc2cc(Oc3ccc(NC(=O)Nc4ccc(Cl)c(C(F)(F)F)c4)cc3)c(C)nc2cc1OC"
Output: 681 nM

Task: Please look up its GI50: "CO[C@@]12C[C@H]3[C@@H]([C@@H](O)[C@@H](OC(=O)/C=C/c4ccccc4)[C@@]4(O)C(C)(C)CCC[C@]34C)[C@@H](C)C1=CC(=O)O2"
Output: 585 nM

Task: Please look up its GI50: "CCCN1C(=O)CSC1=Nc1ccc2cc3ccc(N=C4SCC(=O)N4CCC)cc3nc2c1"
Output: 25100 nM

Task: Please look up its GI50: "C#Cc1cccc(Oc2ccc(NC(=O)CCl)cc2)c1"
Output: > 82500 nM

Task: Please look up its GI50: "O=C(Nc1cccc(O)c1)c1cccc(NC2=C(Cl)C(=O)N(Cc3ccccc3)C2=O)c1"
Output: 11900 nM

Task: Please look up its GI50: "Nc1ccc2ccc(NS(=O)(=O)N3CCCCC3)cc2c1"
Output: 728 nM
